system: HEK-293T; experiment: Multiplex assay against HEK293T; assay type: toxicity, cell-based; conditions: human, 24 h, 1 µM, compound concentration 1 uM, replicate 1
// reported Population Normal (%) for each item listed

compound	Population Normal (%)
COCCCN1CCC(NC(=O)c2cc(Cl)c(N)c3c2OCC3)CC1 [PRUCALOPRIDE]	94
O=C(NCCNCC(O)COc1ccc(O)cc1)N1CCOCC1.O=C(NCCNCC(O)COc1ccc(O)cc1)N1CCOCC1.O=C(O)/C=C/C(=O)O (stereo unspecified) [XAMOTEROL FUMARATE]	93
CC(C)C[C@H](CO)Nc1nc(S[C@@H](C)c2ccccc2)nc2nc(N)sc12 [AZD-8797]	97
Nc1nc(-c2ccco2)c2cnn(Cc3ccccc3F)c2n1	92
Cc1ccc(OCC(O)C(C)NC(C)C)c2c1CCC2.Cl (stereo unspecified)	96
O=c1nc2[nH]c3ccccc3nc-2c(=O)[nH]1 [ALLOXAZINE]	95
CCc1nn2c(C)cc(C)nc2c1Cc1ccc(-c2nnc(C3CCNCC3)o2)cc1	95
Cn1cc(C(=O)OCC2CCN(CCNS(C)(=O)=O)CC2)c2ccccc21	95
Cc1c(Cc2ccc3ccccc3n2)c2cc(F)ccc2n1CC(=O)O [TIMAPIPRANT]	95
CCn1c(-c2nc3cc(C(=O)N4CCCC(N)C4)ccc3n2C)cc2ccccc21.Cl (stereo unspecified)	93
CC(F)(F)CN1CCOc2c(nn(-c3ccccc3Cl)c2-c2ccc(Cl)cc2)C1=O	97
COc1cc(C(=O)N2CC[C@@H](O)[C@@H](N)C2)cc2nc(-c3cc4ccccc4n3CC3CC3)n(C)c12.Cl	93
CSc1nc(NC2CCCC2)c([N+](=O)[O-])c(NC2CCCC2)n1 [GS-39783]	92
OCCCNc1cc(-c2ccnc(Nc3cccc(Cl)c3)n2)ccn1	85
CCC(=O)OCC(=O)[C@@]1(OC(=O)CC)[C@@H](C)C[C@H]2[C@@H]3CCC4=CC(=O)C=C[C@]4(C)[C@@]3(Cl)[C@@H](O)C[C@@]21C [BECLOMETHASONE DIPROPIONATE]	95
CN1CCN2c3ccccc3Cc3ccccc3C2C1.Cl (stereo unspecified) [MIANSERIN HYDROCHLORIDE]	98
CN(C)C(=O)Cn1cc(-c2ccc(-c3nnc4ccccn34)cc2)cn1	93
CCCCC[C@H](O)/C=C/[C@H]1[C@H](O)CC(=O)[C@@H]1CCCCCCC(=O)O [ALPROSTADIL]	96
Cc1sc2c(c1C)C(c1ccc(Cl)cc1)=N[C@H](CC(=O)OC(C)(C)C)c1nnc(C)n1-2	94
COc1ccc2c(c1OCc1ccccc1)C[C@@H](C(=O)O)N(C(=O)C(c1ccccc1)c1ccccc1)C2 [OLODANRIGAN]	96
COCCn1c(C)c(C)s/c1=N\C(=O)C1C(C)(C)C1(C)C	95

====

test system: HEK-293T; test: Multiplex assay against HEK293T; assay type: toxicity, cell-based; details: human, 48 h, 1 µM, compound concentration 1 uM, replicate 2
measurement.kind: Population Hoechst High Intensity Objects (%)

compound	output.unit	reported.result
Cc1ccc(OCC(O)C(C)NC(C)C)c2c1CCC2.Cl (stereo not drawn)	%	1
C[C@@H]1CC(=O)Nc2cccc(-c3ccc4c(c3)c(-c3cnn(C)c3)nn4C)c2N1	%	2
Cc1cc(O)c(-c2ccc([C@@H](C)CN(C)C)cc2)c2c1[nH]c(=O)c1sccc12	%	25

These data points were gathered from ChEMBL document CHEMBL5058577.
